Recorded values, source patent US12172989B2.

# target-or-system: UniProt:Q09472
# Sequence (Q09472 1284-1673 limits assumed): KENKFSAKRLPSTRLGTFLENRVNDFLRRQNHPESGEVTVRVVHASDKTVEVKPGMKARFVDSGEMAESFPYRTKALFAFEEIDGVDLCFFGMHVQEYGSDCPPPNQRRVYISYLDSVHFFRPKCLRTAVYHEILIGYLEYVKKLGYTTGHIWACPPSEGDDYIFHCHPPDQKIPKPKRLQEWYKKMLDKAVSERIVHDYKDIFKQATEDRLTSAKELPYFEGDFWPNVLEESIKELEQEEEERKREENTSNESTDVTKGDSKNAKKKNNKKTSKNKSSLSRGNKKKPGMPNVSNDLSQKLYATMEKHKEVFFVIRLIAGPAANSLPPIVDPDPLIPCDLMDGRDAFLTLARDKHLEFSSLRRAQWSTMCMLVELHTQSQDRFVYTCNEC
property-measured: pIC50
pIC50 here is simply -log10 of the concentration when that concentration is written in mol/L.

Consider the following illustrative entries.
compound="CNC(=O)Nc1ccc2c(c1)CC[C@@]21OC(=O)N(CC(=O)N2Cc3sccc3CC[C@H]2C2CC2)C1=O [SYY-B126-2]" property_measured=pIC50 reported=9.30
compound="CNC(=O)Nc1ccc2c(c1)CC[C@]21OC(=O)N(CC(=O)N2Cc3ncccc3CC[C@H]2C2CC2)C1=O [SYY-B095-1]" property_measured=pIC50 reported=7.93

Okay, next one:
Report its pIC50 with UniProt:Q09472 as the test system: NC1(C(=O)Nc2ccc3c(c2)CC[C@]32OC(=O)N(CC(=O)N3Cc4ccc(F)cc4CC[C@@H]3C3CC3)C2=O)CCC1 [SYY-B040-1]
6.89
